B1: glmS ribozyme (parent)
chain: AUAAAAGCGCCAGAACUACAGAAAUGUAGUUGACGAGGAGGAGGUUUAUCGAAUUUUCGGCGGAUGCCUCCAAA

- Variants of: B1
- experiment.description: KM; higher = weaker cofactor use; RNA array
- recorded.conditions: with glucosamine-6-phosphate
outcome.measure: KM (µM)
Could you give me the number in µM? Just the number is fine.

For A12G C71A the variant record lists KM as 4880

For A14U A42G the variant record lists KM as 2710

For G9U C61A the variant record lists KM as 1500

For G29U A52G the variant record lists KM as 3340

For U65G C68A the variant record lists KM as 501

For A39U C71A the variant record lists KM as 1880

For A15C U54A the variant record lists KM as 1930

For A42U U47A the variant record lists KM as 1210

For A12G U56C the variant record lists KM as 9850

For G40U U45A the variant record lists KM as 1030

For U30A G32U the variant record lists KM as 4830

For A39C A52U the variant record lists KM as 2380

For A6C U45A the variant record lists KM as 3720

For A39G A64U the variant record lists KM as 3440

For U69C C70U the variant record lists KM as 854

For A14U U57A the variant record lists KM as 2120

For A39G G44C the variant record lists KM as 2450

For U46C U54G the variant record lists KM as 1370

For A15U G66U the variant record lists KM as 717

For A39U C68U the variant record lists KM as 1340

For U31C U55A the variant record lists KM as 3270

For A39C U46G the variant record lists KM as 2000

For A15C G40A the variant record lists KM as 1860

For A33C A39G the variant record lists KM as 5030

For U45C U56G the variant record lists KM as 4840

For G29C U65A the variant record lists KM as 2100

For U31A A53C the variant record lists KM as 5300

For A12G U47G the variant record lists KM as 4640

For U31G A48C the variant record lists KM as 2550

For A53U U57C the variant record lists KM as 1360

For C16G U30C the variant record lists KM as 763

For A15U C16G the variant record lists KM as 2570

For A39C U54C the variant record lists KM as 2400

For A12U G60A the variant record lists KM as 2040

For U45G U55A the variant record lists KM as 1800

For G44A U54A the variant record lists KM as 2530

For A14G G59U the variant record lists KM as 9330

For U31C A52G the variant record lists KM as 4640

For G13C G32C the variant record lists KM as 3050

For U45A U65G the variant record lists KM as 4290

For C16U U55G C68U the variant record lists KM as 507

For A53G A64C the variant record lists KM as 1870

For U46G A64C the variant record lists KM as 227

For G13U U54A the variant record lists KM as 2690

For U45C U54A the variant record lists KM as 6680

For U31C G66A the variant record lists KM as 2030

For A14G A64U the variant record lists KM as 1830

For A42G U45A the variant record lists KM as 303

For U57A G66A the variant record lists KM as 4040

For G13U A33U the variant record lists KM as 1490

For G38A U56A the variant record lists KM as 52.5

For G40A A48U the variant record lists KM as 2780

For G13C C67A the variant record lists KM as 5930

For U56G U65C the variant record lists KM as 6800

For U46G U65A the variant record lists KM as 2420

For C70U C71G the variant record lists KM as 242

For C11U U56A the variant record lists KM as 1910

For A12U G44U the variant record lists KM as 1290

For G32U G41A the variant record lists KM as 4720

For A12G U31A G32U the variant record lists KM as 5790

For C34A U56G the variant record lists KM as 31

For G29U U47C the variant record lists KM as 1050

For A15U U45G the variant record lists KM as 2150

For G13A C16U the variant record lists KM as 2220

For A39U U56C the variant record lists KM as 2130

For A15C C67G the variant record lists KM as 1530

For A39G A64C the variant record lists KM as 2860

For U54C C71A the variant record lists KM as 1580

For C11U G29C the variant record lists KM as 1860

For U55G C71A the variant record lists KM as 528

For U45A U54A the variant record lists KM as 2630

For A12G G40U the variant record lists KM as 3740

For C11U G40C the variant record lists KM as 2960

For C16A U56A the variant record lists KM as 3180

For A14C A48U the variant record lists KM as 3170

For A14U U31C the variant record lists KM as 1450

For A53G A64U the variant record lists KM as 2590

For A39U U45G the variant record lists KM as 2650

For A12G U31C the variant record lists KM as 4090

For A12C A64C the variant record lists KM as 4850

For G13A G29A the variant record lists KM as 4980

For U45G A53U the variant record lists KM as 2170

For C11A the variant record lists KM as 2280

For A15C G38U the variant record lists KM as 67.7

For C11U C67A the variant record lists KM as 801

For G13U C71G the variant record lists KM as 155

For A53U U56C C71U the variant record lists KM as 4240

For A12G U55C the variant record lists KM as 4740

For G41U U46A the variant record lists KM as 2400

For G13C G29A the variant record lists KM as 3070

For G13U A52G the variant record lists KM as 817
